The reported measurements were obtained from ChEMBL document CHEMBL4428110.

# experimental-system: Tyrosinase (Agaricus bisporus, UniProt O42713)
# Sequence (O42713 whole entry): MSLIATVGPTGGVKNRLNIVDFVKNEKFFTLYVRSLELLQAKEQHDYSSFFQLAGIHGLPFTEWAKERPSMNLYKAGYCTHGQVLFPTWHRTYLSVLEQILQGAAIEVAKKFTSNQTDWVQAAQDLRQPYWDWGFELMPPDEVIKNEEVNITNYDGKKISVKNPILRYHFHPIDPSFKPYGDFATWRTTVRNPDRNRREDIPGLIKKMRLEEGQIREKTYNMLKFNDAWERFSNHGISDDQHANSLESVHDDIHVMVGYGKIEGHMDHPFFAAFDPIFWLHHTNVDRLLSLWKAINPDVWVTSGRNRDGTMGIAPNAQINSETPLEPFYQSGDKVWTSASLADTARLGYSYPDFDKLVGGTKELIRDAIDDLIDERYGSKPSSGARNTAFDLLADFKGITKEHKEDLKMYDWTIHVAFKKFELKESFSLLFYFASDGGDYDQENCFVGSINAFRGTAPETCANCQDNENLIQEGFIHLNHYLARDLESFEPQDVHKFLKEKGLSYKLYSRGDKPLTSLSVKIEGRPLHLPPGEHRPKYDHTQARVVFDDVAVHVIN
# measurement-notes: Activation of mushroom tyrosinase using L-tyrosine as substrate preincubated for 5 mins followed by substrate addition measured after 30 mins by ELISA
Reported log10 EC50 by item:
Give log10 of EC50, with EC50 taken in µM.

molecular-string	observed-measurement
O=C(/C=C/c1ccc(Cl)cc1)c1ccc(NC(=O)c2ccccc2)cc1	1.32
O=C(/C=C/c1ccccc1)c1ccc(OCc2cc(-c3cccc(Cl)c3)no2)cc1	1.38
CN(C)c1ccc(-c2cc(COc3ccc(C(=O)/C=C/c4ccccc4)cc3)on2)cc1	1.46
O=C(/C=C/c1ccccc1)c1ccc(OCc2cc(-c3ccc(F)c(F)c3)no2)cc1	0.11
O=C(/C=C/c1ccccc1)c1ccc(CCc2cn(Cc3ccc(Cl)cc3)nn2)cc1	1.38

QUERY: GET /values?readout=log10 EC50&system=Tyrosinase (Agaricus bisporus, UniProt O42713)&item= O=C(/C=C/c1ccccc1)c1ccc(OCc2cc(-c3ccc(Cl)c(F)c3)no2)cc1
RESULT: 0.48

* * *

# experimental-system: Tyrosinase (Mus musculus)
# measurement-notes: Activation of tyrosinase in mouse B16F10 cells assessed as melanin production at 50 uM after 48 hrs by spectrophotometric analysis relative to control
# Format: cell-based
Activity calls are given as the source filed them. The calls are words filed in the database; no cut-off is given here.
property-name: Activity

Example results:
molecule	experimental-system	Activity
O=C(/C=C/c1ccccc1)c1ccc(OCc2cc(-c3ccc(Cl)c(F)c3)no2)cc1	Tyrosinase (Mus musculus)	Active
O=C(/C=C/c1ccccc1)c1ccc(OCc2cc(-c3cccc(OC(F)(F)F)c3)no2)cc1	Tyrosinase (Mus musculus)	Active
O=C(/C=C/c1ccccc1)c1ccc(OCc2cc(-c3ccc(Cl)c(Cl)c3)no2)cc1	Tyrosinase (Mus musculus)	Active
O=C(/C=C/c1ccccc1)c1ccc(OCc2cc(-c3ccc(F)c(F)c3)no2)cc1	Tyrosinase (Mus musculus)	463%

QUERY: Fill blank: measured Activity of the molecule O=C(/C=C/c1ccccc1)c1ccc(OCc2cc(-c3cccc(F)c3)no2)cc1 is ____.
RESULT: 330%

QUERY: Fill blank: measured Activity of the molecule O=C(/C=C/c1ccccc1)c1ccc(OCc2cc(-c3ccc4c(c3)OCCO4)no2)cc1 is ____.
RESULT: 438%

QUERY: Fill blank: measured Activity of the molecule COc1c2occc2cc2ccc(=O)oc12 [METHOXSALEN] is ____.
RESULT: 115%

QUERY: Fill blank: measured Activity of the molecule O=C(/C=C/c1ccccc1)c1ccc(OCc2cc(-c3cc(Cl)cc(Cl)c3)no2)cc1 is ____.
RESULT: 57%
